Biological target: T1, R785A (Drosophila melanogaster, UniProt Q9W1K4 512-819, R785A)
T1 sequence: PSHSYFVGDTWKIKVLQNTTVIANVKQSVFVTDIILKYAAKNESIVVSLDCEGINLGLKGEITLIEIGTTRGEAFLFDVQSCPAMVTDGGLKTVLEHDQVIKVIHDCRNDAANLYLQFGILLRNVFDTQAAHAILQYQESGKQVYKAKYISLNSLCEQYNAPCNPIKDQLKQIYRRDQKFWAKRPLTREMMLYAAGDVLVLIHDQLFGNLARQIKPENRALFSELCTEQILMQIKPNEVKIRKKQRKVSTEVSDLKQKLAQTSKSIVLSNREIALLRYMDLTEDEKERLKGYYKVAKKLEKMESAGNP
Assay: fluorescence anisotropy; FA: 20 mM HEPES-NaOH pH 7.5, 100 mM NaCl, 10% glycerol, 20 C, 10 nM FAM-RNA; competition: 150 nM Egl512-819 + 10 nM FAM-K10 TLS, same buffer
Settings: protein: recombinant; tags: N-terminal GST; label: 5'-6-FAM; hairpin with two bulges
Value Kind: Kd (nM)

• CUUGAUUGUAUUUUUAAAUUAAUUCUUAAAAACUACAAAUUAAG (structured_RNA) [K10 TLS (FAM)] = 194
